test: NCI Yeast Anticancer Drug Screen. Data for the cln2 rad14 strain (AID 165);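 note: 0% = growth equal to vehicle treated cultures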; details: S. cerevisiae cln2 rad14 strain, at 50.0 µM, hits give high values
The panel holds about 79,000 compounds, 15% with a hit somewhere; the sample as a whole holds those more often.
In this section we review reported growth inhibition values for a set of compounds.
Report only the number, with the unit % understood.

These recorded examples may help you get a feel for the data.
- Cc1ccsc1/C=N/Nc1nc2ccccc2s1: 9.2
- CCC(C(=O)O)C1=CCCCC1 (stereo unspecified): 16.1
- CCCCC(CC)CCC(C)=O (stereo unspecified): 3.3

## Task Give reported growth inhibition value for CC(=O)Oc1c(OC(C)C)c(C)c(O[Si](C(C)C)(C(C)C)C(C)C)c2[nH]c3ccccc3c12
## Result -10.9

## Task Give the reported growth inhibition for this compound. [Cl][Pd][Cl].[NH-]c1ccc(/C=C2\C=Cc3ccccc32)cc1.[NH-]c1ccc(/C=C2\C=Cc3ccccc32)cc1
## Result 47.4

## Task Return growth inhibition (reported value) for this compound: CC(=O)Nc1cc2c(cc1C=O)OCO2
## Result -32.3

## Task Determine from records and report growth inhibition for CCc1ccc2c(c1)C(=O)c1c(c(-c3ccccc3)c3ccccc3c1-c1ccccc1)C2=O
## Result -18.1

## Task Find the measured growth inhibition of CCC(=O)C(C)C(=O)C(=O)NCCNC(=O)C(=O)C(C)C(=O)CC (stereo unspecified) and report it.
## Result -16.6

## Task Look up and report measured growth inhibition for this entry: CCCCC(CC)CSCCOC(C)OCCSCC(CC)CCCC (stereo unspecified)
## Result 39.9

## Task Give the value of growth inhibition reported for the following: Clc1ccc(-c2nnc(-c3ccccc3)o2)cc1Cl
## Result 16

## Task Fill in reported growth inhibition for this entry: COc1ccccc1/C=C/C(=O)c1ccccc(=O)c1O
## Result -23.4

----------
assay: NCI Yeast Anticancer Drug Screen. Data for the sgs1 mgt1 strain (AID 161);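 note: 0% = growth of cultures given vehicle only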; settings: S. cerevisiae sgs1 mgt1 strain, at 50.0 µM, hits give high values
This is part of a sample that, as a whole, favours compounds with a hit. Of some 79,000 tested, about 15% had one in any assay.
The compounds listed here are annotated with their growth inhibition.
Report the value in % with no unit label.

Solved cases below.
• C=C(CC[C@@H](C)[C@H]1CC[C@@]2(C)C3=C(CC[C@]12C)[C@@]1(C)CC[C@H](O)[C@@H](C)C1CC3)C(C)C (stereo partly specified) = 45.2
• O=C(O)c1ccc(O)c([N+](=O)[O-])c1 = 6.5
• Cc1cc(Cl)cc(Cl)c1OCC(=O)O = 4.4
• O=C1CC2C3CC(Br)C4C3CC2C14 (stereo unspecified) = 1.75
• CC1=C(C(=O)NNC(=O)C[N+](C)(C)C)CC(C(=O)NNC(=O)C[N+](C)(C)C)=C(C)N1 = -10.9

Now consider the entry below.
## Task Could you please provide reported growth inhibition for O=C(O)c1cc(C(=O)O)cc(S(=O)(=O)N2CCOCC2)c1 ? Thanks!
## Result -3.8

----------
assay: NCI Yeast Anticancer Drug Screen. Data for the rad50 strain (AID 155);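 note: 0% = growth of vehicle-only cultures of the same strain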; conditions: S. cerevisiae rad50 strain growth inhibition; at 50.0 µM; hits give high values
Compounds without any hit were thinned out: in the full panel of roughly 79,000, 15% have a hit.
growth inhibition by entry:
Kindly answer with a numeric value in %, unit omitted.

// worked examples, growth inhibition included
- COc1cc(C(=O)Nc2cccc(Cl)c2Cl)cc(OC)c1OC: -7.45
- O=C1c2ccccc2S(=O)N1OCc1ccccc1 (centres undefined): -0.85
- CCCCc1c2c(nc3c1CCC/C3=C\c1ccccc1)C(=O)CCC2: 15.8
- Nc1nc(N)c2nc(C(=O)O)c(C(=O)O)nc2n1: -20.6
- C(=C\P(c1ccccc1)c1ccccc1)/P(/C=C/P(c1ccccc1)c1ccccc1)c1ccccc1: -18.4

## Task Give me measured growth inhibition, please, for this compound: [Mn].[NH-]C(CSSCC(N)C(=O)O)C(=O)O (centres undefined)
## Result -2.45

## Task Identify growth inhibition associated with the compound Fc1ccc2nncc(SCc3ccc(Cl)c(Cl)c3)c2c1
## Result -1

----------
test: NCI Yeast Anticancer Drug Screen. Data for the bub3 strain (AID 167); details: S. cerevisiae bub3 mutant strain, at 50.0 µM, hits give high values
The panel holds about 79,000 compounds, 15% with a hit somewhere; the sample as a whole holds those more often.
A collection of compounds and their measured growth inhibition
A number alone suffices; assume %.

Some solved entries appear below for comparison.
• Cc1ccc(S(=O)(=O)N2CCC[C@@H]2C(=O)O[C@@H]2CCC3CC=CC32)cc1 (stereo partly drawn) = -12.3
• N#Cc1nc(NC(=O)c2ccccc2C(=O)O)c(C#N)[nH]1 = -8.85
• N=S(=O)(c1ccccc1)c1ccccc1[N+](=O)[O-] (stereo not drawn) = 19.5
• CN(CCO)CC(O)Cn1cnc2c(N)ncnc21 (stereo not drawn) = -19.4
• O=c1cc[nH]c2ccc(Cl)cc12 = -7.1
• ClC1CC2CC1C1COCC21 (stereo not drawn) = -12.6
• CC1CC(NC(=O)/C=C/C(=O)O)CC(C)(C)C1 (stereo not drawn) = 33.9
• NC(CCCCN=Cc1nc(-c2ccccc2)oc1O)C(=O)O (stereo not drawn) = -27.7
• c1ccc2c(c1)NC1(CCCCC1)S2 = 5
• CCOC(=O)c1ccccc1OCc1ccccc1 = 51.8

## Task Give the reported value of growth inhibition for this record: CC(=O)NC1C(=O)N(c2ccccc2)N=C1C (stereo not drawn)
## Result -6.5

## Task Please give the documented growth inhibition of Clc1cnnc(Cl)c1N/N=C/c1ccco1
## Result -6.7

## Task For the compound CCOCC1OCCCO1 , give its measured growth inhibition value.
## Result -10

----------
Assay: NCI Yeast Anticancer Drug Screen. Data for the mlh1 rad18 strain (AID 175)
Details: S. cerevisiae mlh1 rad18 strain growth inhibition; at 50.0 µM; hits give high values
Procedure: Growth inhibition of yeast strains with defined genetic alterations is measured as a screen for potential anti-cancer activity. Selected strains with alterations in DNA damage repair or cell cycle control were exposed to compounds and growth inhibition was measured relative to vehicle treated controls. The strain used in this assay is mlh1 rad18
Compounds without any hit were thinned out: in the full panel of roughly 79,000, 15% have a hit.
observation.type: growth inhibition (%)
// return numeric value only (unit: %, not printed)

Known growth inhibition results, listed for orientation:
- Cc1cccc[n+]1CC(=O)c1ccccc1: 20.9
- CC(C)C(NC(=O)C1CSC(C)(C)N1C=O)C(N)=O (stereo unspecified): -25.2

## Task Tell me growth inhibition reported for COC(=O)c1ccccc1NC(OC)c1cccc([N+](=O)[O-])c1 (stereo unspecified)
## Result 5.55

## Task Output growth inhibition of CC1CC(c2ccccc2)(c2ccccc2)CN1C (stereo unspecified)
## Result 8.5

## Task Return growth inhibition for the following molecule: O=S(=O)(O)c1cc(S(=O)(=O)O)c2c(Nc3ccnc4ccccc34)ccc(S(=O)(=O)O)c2c1
## Result 13.8

## Task Hello, please tell me recorded growth inhibition for this one: CC(Br)C(=O)Nc1ccc(C(=O)O)c(O)c1 (stereo unspecified)
## Result 2.95

## Task Identify growth inhibition associated with the molecule CCCC(=O)OCc1ccccc1
## Result -7.85

## Task Query growth inhibition for O=[N+]([O-])c1ccc2oc3cccnc3c2c1
## Result 12.8

## Task Consider the molecule O=C(OCC(OC(=O)c1ccccc1)C(OC(=O)c1ccccc1)C(OC(=O)c1ccccc1)c1nn[nH]n1)c1ccccc1 (stereo unspecified) . State its measured growth inhibition.
## Result 80.5

## Task Provide one value: measured growth inhibition of Cc1cc2c(=O)c3ccccc3oc2c(C(=O)O)c1C
## Result -4.15

## Task Please report growth inhibition for the following molecule: CC(=O)Nc1ccc(CCc2ccc(NC(C)=O)cc2)cc1
## Result -12.3

----------
experiment: NCI Yeast Anticancer Drug Screen. Data for the mec2-1 strain (AID 157); conditions: S. cerevisiae mec2-1 strain, at 50.0 µM, hits give high values
About 79,000 compounds went through this panel and 15% of them were active in at least one assay; those are over-represented in the sample as a whole.
observation.type: growth inhibition (%)
Quick note: give the figure in %, leave out the unit.

Guide cases for growth inhibition, answers given:
• O=C(CSSCC(=O)Nc1ccc(Br)cc1)Nc1ccc(Br)cc1 = 2.45
• CC(=O)NCCCCCC(=O)N(C)C = -8.45
• O=c1c(-c2ccc(O)cc2)coc2cc(O)cc(O)c12 = -6.15

## Task Specify measured growth inhibition for Nc1nc2c(c(-c3ccc(F)cc3)n1)COC/C2=C\c1ccc(F)cc1 .
## Result 24

## Task Indicate its recorded growth inhibition; the compound in question is CCCCCCCc1ccccc1
## Result -14.7

## Task Given COC(=O)Nc1nc2ccc(C3c4c(n[nH]c4C)CC(C)(O)C3C(C)=O)cc2[nH]1 (configuration not stated) , respond with its growth inhibition.
## Result 3.85

## Task Give a short answer stating reported growth inhibition for NCCSC(O)(C(F)(F)F)C(F)(F)F .
## Result 8.85

## Task Using known records, supply growth inhibition for COc1cc2c3c(c1)-c1c(ccc(OC)c1Oc1nnnn1-c1ccccc1)CC3N(C)CC2 (configuration not stated)
## Result 26.2

## Task Report growth inhibition for O=C(O)/C(=C\c1ccccc1Cl)S(=O)(=O)c1ccccc1
## Result -6.45

## Task Using the record for CC(C)(C)N=C(N)NC#N , state its measured growth inhibition.
## Result 9.25

## Task Complete the entry with growth inhibition for C=CCOC(=O)Oc1ccc(Cl)cc1
## Result -13.9

## Task Supply recorded growth inhibition for Cn1cnc([N+](=O)[O-])c1Cl here.
## Result -3.6

The values you see were collected from PubChem BioAssay (NCI).
